- EXPERIMENT: AUC in rhesus monkey at 5 mg/kg, po
- Type: ADME, organism-based, Macaca mulatta
- Parameters: dose 5 mg/kg, route oral
- RECORDED_CONDITIONS: plasma
PARAMETER: AUC (µM·h)
# number only, unit µM·h dropped from output

Lookup: Answer with the recorded AUC for the compound listed here: "C=C[C@@H]1C[C@]1(NC(=O)[C@@H]1C[C@@H]2CN1C(=O)[C@H](C1CCCCC1)NC(=O)OCC(C)(C)CCCc1cc3c(nccc3cc1OC)O2)C(=O)NS(=O)(=O)C1CC1"
Found: 1.2

====

Examples of compounds with documented concentration at 4 h follow.
- EXPERIMENT: Drug level in Sprague-Dawley rat liver at 5 mg/kg, po after 4 hrs
- Type: ADME, organism-based
- Design: dose 5 mg/kg, route oral
- RECORDED_CONDITIONS: read-out: Drug uptake
Kindly provide the numeric value in µM only, without the unit symbol.

Field: example entries. Status: answers known.
>>> print(df.to_string())
                                 smiles_str             parameter  measured_number
0  C=C[C@@H]1C[C@]1(NC(=O)[C@@H]1C[C@@H]2CN1C(=O)[C@H](C1CCCCC1)NC(=O)OCC(C)(C)CCCc1cc3c(nccc3cc1OC)O2)C(=O)NS(=O)(=O)C1CC1  concentration at 4 h               23
1  C=C[C@@H]1C[C@]1(NC(=O)[C@@H]1C[C@@H]2CN1C(=O)[C@H](C1CCOCC1)NC(=O)OCCCCCc1ccc3ccnc(c3c1)O2)C(=O)NS(=O)(=O)C1CC1  concentration at 4 h             0.09
2  C=C[C@@H]1C[C@]1(NC(=O)[C@@H]1C[C@@H]2CN1C(=O)[C@H](C(C)(C)C)NC(=O)OCCC/C=C/c1ccc3ccnc(c3c1)O2)C(=O)NS(=O)(=O)C1CC1  concentration at 4 h             18.6

Lookup: Report concentration at 4 h for "C=C[C@@H]1C[C@]1(NC(=O)[C@@H]1C[C@@H]2CN1C(=O)[C@H](C1CCCCC1)NC(=O)OCCCCCc1cc(OC)c3ccnc(c3c1)O2)C(=O)NS(=O)(=O)C1CC1"
Found: 13.2

Lookup: Name the recorded concentration at 4 h of the item "C=C[C@@H]1C[C@]1(NC(=O)[C@@H]1C[C@@H]2CN1C(=O)[C@H](Cc1ccccc1)NC(=O)OCCC/C=C/c1ccc3ccnc(c3c1)O2)C(=O)NS(=O)(=O)C1CC1" in your answer.
Found: 10
